# Tested on: human APOE RNA
# EXPERIMENTAL_DETAILS: Dose-dependent reduction of human APOE RNA in HepG2 cells, electroporation, 20,000 cells per well, normalized to PPIA (Example 4, Table 11)
# Type: cell-based
# SETTINGS: HepG2 cells, 20,000 cells per well, approximately 24 hours, PPIA-normalized, 3,200 nM
Strand notation (5' to 3'): a small letter for the sugar, then the base; units joined by * are phosphorothioate-linked, units joined directly phosphodiester-linked; [ ] holds rarer units or linkages, { } end groups; capitals alone tell only the bases. [ms] = mesyl phosphoramidate linkage; e = 2'-O-(2-methoxyethyl) (MOE); k = constrained ethyl (cEt); [5mC] = 5-methylcytosine; d = 2'-deoxy (DNA)
So I've got a bunch of substances here, and I need their APOE RNA (% UTC) 3,200 nM values.
Report the value in % UTC with no unit label.

Summary for this substance, Aks^mCeoTeoTesGesGksTdsGdzAdzAdzTds^mCdsTdsTdsTdsAdzTksTksAesAe (kA*e[5mC]eTeT*eG*kG*dT*dG[ms]dA[ms]dA[ms]dT*d[5mC]*dT*dT*dT*dA[ms]kT*kT*eA*eA) [Compound No. 1809635] : APOE RNA (% UTC) 3,200 nM is 16

Summary for this substance, ^mCksTksTksGdzGdzTdzGdzAdzAdzTds^mCdsTdsTdsTdsAdsTdsTksAksAdzAk (antisense k[5mC]*kT*kT*dG[ms]dG[ms]dT[ms]dG[ms]dA[ms]dA[ms]dT*d[5mC]*dT*dT*dT*dA*dT*kT*kA*dA[ms]kA) [Compound No. 1785602] : APOE RNA (% UTC) 3,200 nM is 10

Summary for this substance, TezTeoGeoGksTdsGdzAdzAdzTds^mCdsTdsTdsTdsAdzTksTksAesAesAes^mCe (antisense eT[ms]eTeGkG*dT*dG[ms]dA[ms]dA[ms]dT*d[5mC]*dT*dT*dT*dA[ms]kT*kT*eA*eA*eA*e[5mC]) [Compound No. 1809814] : APOE RNA (% UTC) 3,200 nM is 31

Summary for this substance, Aes^mCeoTeoTesGesGksTdsGdzAdzAdzTds^mCdsTdsTdsTdsAdzTksTksAesAe (eA*e[5mC]eTeT*eG*kG*dT*dG[ms]dA[ms]dA[ms]dT*d[5mC]*dT*dT*dT*dA[ms]kT*kT*eA*eA) [Compound No. 1757576] : APOE RNA (% UTC) 3,200 nM is 6

* * *

# Tested on: human APOE RNA
# EXPERIMENTAL_DETAILS: Dose-dependent inhibition of human APOE RNA in HepG2 cells, electroporation, 50,000 cells per well, RT-PCR normalized to GAPDH (Example 4, Tables 8-10)
# Type: cell-based
# SETTINGS: HepG2, electroporation, 16-hour treatment
Strand notation (5' to 3'): a small letter for the sugar, then the base; units joined by * are phosphorothioate-linked, units joined directly phosphodiester-linked; [ ] holds rarer units or linkages, { } end groups; capitals alone tell only the bases. [ms] = mesyl phosphoramidate linkage; e = 2'-O-(2-methoxyethyl) (MOE); k = constrained ethyl (cEt); [5mC] = 5-methylcytosine; d = 2'-deoxy (DNA)
MEASURED_ATTRIBUTE: IC50 (nM)
Report the value in nM with no unit label.

Summary line: 1757566 (eA*e[5mC]eTkTkG*dG*dT*dG*dA*dA*dT*d[5mC]*dT*dT*dT*eAeTeT*eA*eA; antisense) [Compound 1757566] , human APOE RNA, reported IC50 = 550

Summary line: 1757563: mixed MOE/cEt gapmer TTGGTGAATCTTTATTAA, sugar eeeekddddddddkekee, linkages soossssssssssooss (eT*eTeGeG*kT*dG*dA*dA*dT*d[5mC]*dT*dT*dT*kAeTkT*eA*eA) [compound 1757563] , human APOE RNA, reported IC50 = 1380

Summary line: 1757544: mixed MOE/cEt gapmer TTGGTGAATCTTTATTAA, sugar ekeeeddddddddeeeee, linkages soossssssssssooss (eT*kTeGeG*eT*dG*dA*dA*dT*d[5mC]*dT*dT*dT*eAeTeT*eA*eA) [compound 1757544] , human APOE RNA, reported IC50 = 2180

Summary line: Aes^mCeoTeoTesGesGksTdsGdzAdzAdzTds^mCdsTdsTdsTdsAdzTksTksAesAe (eA*e[5mC]eTeT*eG*kG*dT*dG[ms]dA[ms]dA[ms]dT*d[5mC]*dT*dT*dT*dA[ms]kT*kT*eA*eA) [Compound No. 1757576] , human APOE RNA, reported IC50 = 820
